System: recombinant CYP 1A2
Conditions: training set; from literature IC50, Source 3

| molecule | ΔGbind^Obs / kcal/mol |
| --- | --- |
| Cc1cc(C)oc(=O)c1 | -3.63 |
| c1ccc2c(c1)CCO2 [Compound 62, 2,3-Dihydrobenzofuran] | -4.42 |
| CN1C(=O)CC[C@H]1c1cccnc1 | -3.51 |
| c1ccc2ccccc2c1 | -4.73 |
| CCCCC1CCCCC1 | -6.26 |
| Fc1ccc2ccccc2c1 | -6.33 |

---

Test system: recombinant CYP 1A2
Conditions: human
hey, just use 1 if measured ΔGbind^Obs is less than -6 kcal/mol, otherwise -1

| chemSmiles | assignedCategory |
| --- | --- |
| Cc1ccc2c(C)cccc2c1 | 1 |
| Clc1ccccc1-c1ccccc1 | -1 |
| Clc1ccc(-c2ccccc2)cc1 | 1 |
| Oc1cccc2ccccc12 | 1 |
| CCCCc1ccccc1 | -1 |
| O=c1[nH]c2ccccc2o1 | -1 |
| Cc1ccc2cc(C)ccc2c1 | 1 |
| c1ccc(-c2ccccc2)cc1 | -1 |

---

Some molecules, each annotated with its measured ΔGbind^Obs.
Tested on: recombinant CYP 1A2

| molecule | testTarget | ΔGbind^Obs, kJ/mol |
| --- | --- | --- |
| CC1CCC(=O)O1 (stereo not shown) [Compound 51, γ-Valerolactone] | recombinant CYP 1A2 | -12.2 |
| O=C1CCC(c2ccccc2)O1 (stereo not shown) [Compound 70, γ-Phenyl-γ-butyrolactone] | recombinant CYP 1A2 | -16.9 |
| O=C1Cc2ccccc2O1 [Compound 60, 2-Coumarone] | recombinant CYP 1A2 | -22.3 |
| COc1ccc(C=O)cc1 [Compound 11, p-methoxybenzaldehyde] | recombinant CYP 1A2 | -22.2 |

---

System: CYP 1A2
Conditions: training set; from literature IC50, Source 2
attributeMeasured: ΔGbind^Obs (kcal/mol)

| compound | attributeMeasured | unitSymbol | assayValue |
| --- | --- | --- | --- |
| CCOc1ccc(NC(C)=O)cc1 | ΔGbind^Obs | kcal/mol | -6.67 |
| Cc1cccc(C)c1OCC(C)N (stereo not shown) | ΔGbind^Obs | kcal/mol | -8.32 |
| CC(C)NCC(O)COc1cccc2ccccc12 (stereo not shown) | ΔGbind^Obs | kcal/mol | -7.86 |
| O=c1cc(-c2ccccc2)oc2c1ccc1ccccc12 | ΔGbind^Obs | kcal/mol | -10.2 |

---

Test system: recombinant CYP 1A2
Details: human
attributeMeasured: ΔGbind^Obs (kcal/mol)

| compound | attributeMeasured | unitSymbol | assayValue |
| --- | --- | --- | --- |
| Cc1ccc(C)c2ccccc12 [Compound 36, 1,4-Dimethylnaphthalene] | ΔGbind^Obs | kcal/mol | -7.89 |
| Clc1cccc2ccccc12 [Compound 29, 1-Chloronaphthalene] | ΔGbind^Obs | kcal/mol | -6.31 |
| Cc1cccc2c(C)cccc12 [Compound 39, 1,5-Dimethylnaphthalene] | ΔGbind^Obs | kcal/mol | -6.43 |
| Cc1ccc2cccc(C)c2c1 [Compound 41, 1,7-Dimethylnaphthalene] | ΔGbind^Obs | kcal/mol | -7.46 |
| Oc1ccc2ccccc2c1 [Compound 10, 2-naphthol] | ΔGbind^Obs | kcal/mol | -6.96 |

---

Some molecules, each annotated with its measured ΔΔG bind.
Target: human CYP 1A2 (Homo sapiens)
Sequence (P05177 1-516): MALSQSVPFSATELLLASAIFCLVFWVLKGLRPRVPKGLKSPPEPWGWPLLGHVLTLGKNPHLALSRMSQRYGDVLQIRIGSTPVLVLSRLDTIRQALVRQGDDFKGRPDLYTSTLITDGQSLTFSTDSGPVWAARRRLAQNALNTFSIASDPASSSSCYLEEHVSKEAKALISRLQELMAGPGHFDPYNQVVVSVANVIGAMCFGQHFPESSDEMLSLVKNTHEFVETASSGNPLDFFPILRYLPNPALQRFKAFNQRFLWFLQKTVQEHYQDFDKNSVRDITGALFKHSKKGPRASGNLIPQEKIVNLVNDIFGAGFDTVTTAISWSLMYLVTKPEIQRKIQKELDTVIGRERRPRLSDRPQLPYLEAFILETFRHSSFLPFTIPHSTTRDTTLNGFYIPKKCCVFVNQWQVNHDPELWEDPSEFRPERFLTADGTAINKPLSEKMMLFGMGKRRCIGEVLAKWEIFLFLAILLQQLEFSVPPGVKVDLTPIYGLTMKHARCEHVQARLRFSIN
Assay: in-house CYP 1A2 inhibition assay with 7-methoxyresorufin as substrate (resorufin fluorescence)
Conditions: difference in ΔG bind between literature and in-house determined values
attributeMeasured: ΔΔG bind (kcal/mol)

| molecule | attributeMeasured | assayValue |
| --- | --- | --- |
| Cc1ccc(CCN)cc1 | ΔΔG bind | -1.27 |
| Cc1cccc(Nc2ccccc2C(=O)O)c1C | ΔΔG bind | -0.19 |
| Oc1cccc2ccccc12 | ΔΔG bind | 0.287 |
| COc1ccccc1OCCNCC(O)COc1cccc2[nH]c3ccccc3c12 (stereo not drawn) | ΔΔG bind | 0.096 |
| Cc1c2ccncc2c(C)c2c1[nH]c1ccccc12 | ΔΔG bind | 1.65 |
| COc1ccc(C=O)cc1 | ΔΔG bind | -0.239 |
